biological target: UL9CTD wild type (HSV-1, UniProt P10193 536-851); assay: MST; MST: 50 mM Tris pH 8.0, 150 mM NaCl, 1 mM DTT, 0.05% Tween-20, 40 nM FAM-dsDNA, 25 C; EMSA: 50 mM Tris pH 8.0, 50 mM NaCl, 1 mM DTT, 40 nM FAM-dsDNA, 0.5-3.5 uM protein, 4 C; cryo-EM complex: 20 mM HEPES pH 7.0, 150 mM NaCl, 1 mM DTT; settings: protein: recombinant; tags: N-terminal 8xHis; blunt
Sequence (P10193 536-851): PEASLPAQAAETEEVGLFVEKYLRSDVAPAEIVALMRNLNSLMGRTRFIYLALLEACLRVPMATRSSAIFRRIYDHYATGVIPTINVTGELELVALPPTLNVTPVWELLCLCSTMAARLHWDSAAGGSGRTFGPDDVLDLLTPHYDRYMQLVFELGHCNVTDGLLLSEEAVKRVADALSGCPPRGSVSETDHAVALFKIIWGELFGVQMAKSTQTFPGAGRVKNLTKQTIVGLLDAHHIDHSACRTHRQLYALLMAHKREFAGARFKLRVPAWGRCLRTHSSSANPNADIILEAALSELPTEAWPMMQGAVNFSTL
endpoint.name: pKd
Units for pKd: none; it is -log10 of a concentration expressed in mol/L.

May I ask what pKd has been recorded for 15-bp oriS Box I dsDNA (dsDNA) DNA 1: GCGTTCGCACTTCGT DNA 2: ACGAAGTGCGAACGC ? 5.65

Origin of measurements: paper PMC13483431
